Attribution: patent US5607929A

Below, each entry is listed alongside its reported log10(IC50).
# Tested on: HIV
# protocol: HIV (MT4 assay), in vitro antiviral activity
# Type: cell-based
# condition.context: Human immunodeficiency virus 1
property.name: log10(IC50) (log10 of the value in nM)

1) O=C1Nc2ccccc2Sc2c1cccc2C(F)(F)F ... 3.40
2) O=C1Nc2ccccc2Sc2c(F)cccc21 ... 3.04
3) CSc1cccc2c1Sc1ccccc1NC2=O ... 3.36
4) CN1C(=O)c2cccc(C(F)(F)F)c2Sc2ccccc21 ... 3.45
5) CN1C(=O)c2cccc(F)c2Sc2ccccc21 ... 2.85
6) O=C1Nc2ccccc2S(=O)(=O)c2ccccc21 ... 4.11
7) COc1ccc2c(c1)S(=O)(=O)c1ccccc1C(=O)N2 ... 4.11
